Give pEC50 for every item shown.
# Test system: Vγ9Vδ2 T cells
# Assay Procedure: Survival of Vγ9Vδ2 T cells in HD-PBMC (Caspase3/7 and dead cell marker, flow cytometry)
# Type: cell-based, human
# Condition Info: HD-PBMC, 48 h, in presence of ICT01 (1 μg/mL); read-out: EC50 of Vγ9Vδ2 T cell death
Answers are plain numbers, as −log10 of the molar value.

Compound String | pEC50
CN(C)CC[C@H](CSc1ccccc1)Nc1ccc(S(=O)(=O)NC(=O)c2ccc(N3CCN(Cc4ccccc4-c4ccc(Cl)cc4)CC3)cc2)cc1[N+](=O)[O-] | 6.34
CC1(C)CCC(c2ccc(Cl)cc2)=C(CN2CCN(c3ccc(C(=O)NS(=O)(=O)c4ccc(N[C@H](CCN5CCOCC5)CSc5ccccc5)c(S(=O)(=O)C(F)(F)F)c4)cc3)CC2)C1 | 6.70

Which value of pEC50 has been reported for `COc1ccccc1-c1nccc(COc2ccccc2C[C@@H](Oc2ncnc3sc(-c4ccc(F)cc4)c(-c4ccc(OCCN5CCN(C)CC5)c(Cl)c4C)c23)C(=O)O)n1` in the records?
6.11
